Would you kindly list IC50 for each of these compounds?
- Experimental Target: AKT3 (Homo sapiens)
- Sequence (Q9Y243 whole entry): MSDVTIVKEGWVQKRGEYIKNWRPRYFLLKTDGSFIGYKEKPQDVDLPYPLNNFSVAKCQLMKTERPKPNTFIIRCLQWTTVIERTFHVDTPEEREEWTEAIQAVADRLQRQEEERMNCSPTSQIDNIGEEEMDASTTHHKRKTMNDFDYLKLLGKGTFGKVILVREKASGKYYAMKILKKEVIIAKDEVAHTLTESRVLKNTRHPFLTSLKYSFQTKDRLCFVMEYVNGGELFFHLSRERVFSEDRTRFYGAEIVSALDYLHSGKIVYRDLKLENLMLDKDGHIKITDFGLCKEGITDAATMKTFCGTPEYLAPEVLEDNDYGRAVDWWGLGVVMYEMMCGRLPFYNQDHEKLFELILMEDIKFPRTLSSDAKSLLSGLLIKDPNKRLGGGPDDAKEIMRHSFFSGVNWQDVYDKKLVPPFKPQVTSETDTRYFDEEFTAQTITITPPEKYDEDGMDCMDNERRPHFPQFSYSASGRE

Answered cases to consult:
Input Smiles: NC1(c2ccc(-c3nc4c(cc3-c3ccccc3)-c3n[nH]cc3CC4)cc2)CCC1
Endpoint: IC50
Measured Result: > 10 µM
--
Input Smiles: NC1(c2ccc(-c3nc4c(cc3-c3ccccc3)-c3nncn3CC4)cc2)CCC1
Endpoint: IC50
Measured Result: > 10 µM
--
Input Smiles: N#CCCCN1C(=O)COc2nc(-c3ccc(C4(N)CCC4)cc3)c(-c3ccccc3)cc21
Endpoint: IC50
Measured Result: 1 to 10 µM
--
Input Smiles: N#CCN1CCOc2nc(-c3ccc(C4(N)CCC4)cc3)c(-c3ccccc3)cc21
Endpoint: IC50
Measured Result: > 10 µM
--
Input Smiles: NC1(c2ccc(-c3nc4c(cc3-c3ccccc3)-c3n[nH]c(O)c3CC4)cc2)CCC1
Endpoint: IC50
Measured Result: > 10 µM

// batch mode: one IC50 value per listed entry
1. NC1(c2ccc(-c3nc4c(cc3-c3ccccc3)N(CC3CCC3)C(=O)CO4)cc2)CCC1
2. CS(=O)(=O)c1[nH]nc2c1CCc1nc(-c3ccc(C4(N)CCC4)cc3)c(-c3ccccc3)cc1-2
3. CN1C(=O)COc2nc(-c3ccc(C4(N)CCC4)cc3)c(-c3ccc(F)cc3)cc21

1: 0.1 to 1 µM; 2: > 10 µM; 3: > 10 µM
